assayComment: chemical genetic growth profiling, strain panel (AID 1159580);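 further: tested at 20 µM; growth read once vehicle control cultures reached saturation at 30 °C; 1 = growth at the plate median or of vehicle wells; lower values mean less growth of the strain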
measurementConditions: S. cerevisiae deletion strains, growth OD, locus YJL187C, strain SWE1, stronger effect = lower value
Among all 5,500 compounds or so, about 2,000 (36%) were called active. Another 18% or so got no clear call; they are omitted. Some of the results follow.
measurementLabel: normalized growth

// returns reported normalized growth for input O=C1C=CC(=O)c2c(O)c(Cl)c(Cl)c(O)c21
0.0656 (active)

Same question, COc1cc2c(cc1OC)C(C)NCC2 (centres undefined) this time
0.961 (inactive)

How about COc1ccccc1OCC(O)COC(N)=O (centres undefined) ?
0.99 (inactive)

Repeat with Cc1ccc(S(=O)(=O)N2CCN(CCOc3ccccc3)CC2)cc1
0.995 (inactive)

---

assayComment: chemical genetic growth profiling, strain panel (AID 1159580)
measurementConditions: S. cerevisiae deletion strains, growth OD, locus YIR030C, strain dcg1, stronger effect = lower value
Out of some 5,500 compounds screened, about 2,000 (36%) were called active. Inconclusive results (about 18%) are left out. The list shows a part of the results.
measurementLabel: normalized growth
// return just the number, without any unit appended

For the compound CC(C)Cn1c(=O)n(C)c(=O)c2[nH]cnc21 , what normalized growth is on record?
0.987

Do the same for COC(=O)CC1C(C)(C)C(=O)C2CC3(O)C4=CC(=O)OC(c5ccoc5)C4(C)CCC3C1(C)C2=O (centres undefined) please
0.989

Now give it for NC(=NCCCCCCN=C(N)N=C(N)Nc1ccc(Cl)cc1)N=C(N)Nc1ccc(Cl)cc1 too.
0.0593

Can you handle O[C@H]1[C@H](O)[C@@H](O)C2OC[C@H]1O2 next?
0.983

Further, for COc1cc(Cc2cnc(N)nc2N)cc(OC)c1OC ?
0.991

Another: CC(C)N=C(N)N=C(N)Nc1ccc(Cl)cc1
1.02

Now the compound CC(C)c1cc2c(c(O)c1O)[C@@]1(C(=O)O)CCCC(C)(C)C1CC2 (some centres undefined)
1.01

Now this one: C[C@H]1C(=O)CCC2[C@]3(C)CC[C@@]4(C)C5CC(C)(C)CC[C@]5(C)CC[C@]4(C)C3CC[C@@]21C (some centres undefined)
1.02

Now consider CC(=O)Oc1c(C)c(C)c2c(c1C)CCC(C)(CCCC(C)CCCC(C)CCCC(C)C)O2 (centres undefined) and answer again.
1.01

---

Task for the reader: assign each of the following molecules its reported normalized growth.
assayComment: chemical genetic growth profiling, strain panel (AID 1159580)
measurementConditions: S. cerevisiae deletion strains, growth OD, locus YHR094C, strain hxt1, stronger effect = lower value
The whole screen tested about 5,500 compounds, of which about 2,000 (36%) were called active. Another 18% or so got no clear call; they are omitted. This is one part of the list.
The response must contain the number and no unit.

Recorded normalized growth for C[N+]1(C)CCCC(OC(=O)C(O)(c2ccccc2)c2ccccc2)C1 (centres undefined) , please?
0.996

Also, COc1cc(O)ccc1C(C)=O please.
0.973

Same question, CC(=O)OC1CCC23CC1(C)CCC2C(C)(C)CC3OC(C)=O (centres undefined) this time
0.998

Subsequent entry: COc1cc(Cc2cnc(N)nc2N)cc(OC)c1OC
0.993

Cool, now O=c1c(O)c(-c2ccccc2)oc2cc(O)ccc12
0.903

Now try CN1CCC[C@H]1c1cccnc1 .
0.989

// query: O[C@H]1[C@H](O)[C@@H](O)C2OC[C@H]1O2
1

Now give it for O=C1C(=O)c2ccccc2C(O)=C1C1CCC(c2ccc(Cl)cc2)CC1 (centres undefined) too.
0.98

Now try O=C(CCc1ccc(O)cc1)c1c(O)cc(O)cc1O .
0.999

---

assayComment: chemical genetic growth profiling, strain panel (AID 1159580)
measurementConditions: S. cerevisiae deletion strains, growth OD, locus YJL128C, strain PBS2, stronger effect = lower value
Among all 5,500 compounds or so, about 2,000 (36%) were called active. Roughly 18% stayed inconclusive and do not appear here. The list shows a part of the results.
Kindly supply the reported normalized growth values for the records listed here.
Form field (numeric): enter value without unit.

So what's the measured normalized growth for this one? COc1ccc(Oc2ccc([N+](=O)[O-])cc2C(=O)O/N=C(/N)c2ccc(C(F)(F)F)cc2)cc1
0.957

Let us now turn to NNC(=O)c1oc2nc(-c3ccccc3)cc(-c3ccccc3)c2c1N
0.95

One more compound: S=C(NCc1cccs1)Nc1cc(Cl)cc(Cl)c1
0.892

Subsequent entry: O=C(/C=C/c1ccc(Cl)cc1)Nc1cccc(Cl)c1
0.919

Ok, now CC(C)OC(=O)Nc1cc(Cl)cc(Cl)c1
0.899

Same lookup for COc1cc(C2SCCS2)cc(Br)c1OC(=O)NC(=O)c1c(Cl)cccc1Cl , please.
0.916

---

assayComment: chemical genetic growth profiling, strain panel (AID 1159580);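 further: tested at 20 µM; growth read once vehicle control cultures reached saturation at 30 °C; 1 = growth at the plate median or of vehicle wells; lower values mean less growth of the strain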
measurementConditions: S. cerevisiae deletion strains, growth OD, locus YKL190W, strain CNB1, stronger effect = lower value
Screen size: about 5,500 compounds; about 2,000 (36%) were called active. Not shown: some 18% with an inconclusive outcome. The list shows a part of the results.
Please go through the items and note down their normalized growth.
Answer with a number only.

Please look up its normalized growth: COc1cc2c(cc1OC)C(C)NCC2 (configuration not stated)
1

Can you check C[C@H]1C(=O)CCC2[C@]3(C)CC[C@@]4(C)C5CC(C)(C)CC[C@]5(C)CC[C@]4(C)C3CC[C@@]21C (some centres not stated) next?
1.02

Also check O=C1c2ccccc2C(=O)N1CNc1cccc(Cl)c1
1.02

Thanks! And O=C(O)c1cccc([N+](=O)[O-])c1C(=O)Nc1ccc(F)cc1 ?
0.986

Cool, now CON
1

Now the molecule NS(=O)(=O)c1cc2c(cc1Cl)NCNS2(=O)=O
1.01

Repeat with Nc1ccccc1C(=O)NCCc1ccc(Cl)cc1
0.947

Entry O=C1c2ccccc2C(=O)c2ccccc21 please
0.98

Now give it for COc1cc([C@@H]2c3cc4c(cc3[C@H](O)[C@H]3COC(=O)[C@H]23)OCO4)cc(OC)c1OC too.
1.01

Moving on to NC(Cc1ccc(Cl)cc1)C(=O)O (configuration not stated)
0.991

Okay, and O=C(O)C1c2ccccc2C(=O)N(Cc2ccc3c(c2)OCO3)C1c1cccnc1 (configuration not stated) ?
0.989

Now consider COc1ccc(/C=C/c2cc(O)cc(O[C@@H]3O[C@H](CO)[C@@H](O)[C@H](O)[C@H]3O)c2)cc1 and answer again.
1.01

---

assayComment: chemical genetic growth profiling, strain panel (AID 1159580);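 further: tested at 20 µM; growth read once vehicle control cultures reached saturation at 30 °C; 1 = growth at the plate median or of vehicle wells; lower values mean less growth of the strain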
measurementConditions: S. cerevisiae deletion strains, growth OD, locus YLR262C, strain YPT6 (second series)
Hit rate of the full screen: of about 5,500 compounds, about 2,000 (36%) were called active. Another 18% or so got no clear call; they are omitted. Rule as the data show it: active = normalized growth mostly below about 0.91 (no sharp cut-off); inconclusive = no clear call, values can overlap the other calls; inactive = mostly above about 0.92. This is one part of the list.
Pick one and only one: active, inactive

Give the logged outcome of this assay for the following compound: COc1cc(O)c2c(c1)C(=O)c1cc(C)cc(O)c1C2=O
active

Try the compound O=c1c(O)c(-c2ccccc2)oc2ccc3occc3c12
active

Would you kindly repeat that for CC(=O)c1c(O)cc(O)cc1O ?
inactive

CON ?
inactive

Proceed to CO/N=C(/C(=O)NC1C(=O)N2C(C(=O)OCOC(=O)C(C)(C)C)=C(/C=C\c3scnc3C)CSC12)c1csc(N)n1 (configuration not stated)
inactive

Next compound: O=c1c(O)c(-c2ccccc2)oc2cc(O)ccc12
active

CC(C)[C@@H]1CC[C@@H](C)CC1=O ?
inactive

Follow-up item: O=c1c(O)c(-c2ccc(O)cc2)oc2ccccc12
active

Consider next the compound O=C(Nc1ccc([N+](=O)[O-])cc1Cl)c1cc(Cl)ccc1O in the same way.
active

Can you check CC(C)[C@@H]1CC[C@@H](C)C[C@H]1OC(=O)c1ccccc1 next?
inactive

What do you have for CC12CCC(O)CC1CCc1ccccc12 (configuration not stated) ?
active

Subsequent entry: CC12CCC(OC(=O)c3ccccc3)CC1CCc1ccccc12 (configuration not stated)
inactive

---

assayComment: chemical genetic growth profiling, strain panel (AID 1159580);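 further: tested at 20 µM; growth read once vehicle control cultures reached saturation at 30 °C; 1 = growth at the plate median or of vehicle wells; lower values mean less growth of the strain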
measurementConditions: S. cerevisiae deletion strains, growth OD, locus YLL001W, strain dnm1
Out of some 5,500 compounds screened, about 2,000 (36%) were called active. About 18% were inconclusive and are not listed. Rule as the data show it: active = normalized growth mostly below about 0.91 (no sharp cut-off); inconclusive = no clear call, values can overlap the other calls; inactive = mostly above about 0.92. Some of the results follow.
API: response.call in true (active), false (inactive)

Recorded test call requested for O=c1c(O)c(-c2ccccc2)oc2cc(O)ccc12
true

How about O=C1c2ccccc2C(=O)c2ccccc21 ?
false

How about O=C(/C=C/c1ccc(O)cc1)c1ccc(O)cc1O ?
false

Likewise for O=C(Nc1ccc([N+](=O)[O-])cc1Cl)c1cc(Cl)ccc1O ?
false

Now consider O=C1C=CC(=O)c2c(O)c(Cl)c(Cl)c(O)c21 .
true

Subsequent entry: O=C(CCc1ccc(O)cc1)c1c(O)cc(O)cc1O
false

Let us now turn to CNC(C)[C@@H]1CC[C@@H](N)[C@@H](OC2[C@@H](N)C[C@@H](N)[C@H](OC3OC[C@](C)(O)[C@H](NC)[C@H]3O)[C@H]2O)O1 (some centres undefined)
false

What do you get for O=c1c(O)cccc2cc(O)c(O)c(O)c12 ?
true

And for COc1cc(Cc2cnc(N)nc2N)cc(OC)c1OC ?
false

Queued: CC(C)c1cc2c(c(O)c1O)[C@@]1(C(=O)O)CCCC(C)(C)C1CC2 (some centres undefined)
false

Record: COc1ccc(NS(=O)(=O)c2ccc(N)cc2)nn1
false

Also OC[C@H]1O[C@@H](Oc2ccc(O)cc2)[C@H](O)[C@@H](O)[C@@H]1O ?
false

Ok, now ClC1C(Cl)C(Cl)C(Cl)C(Cl)C1Cl (centres undefined)
false

Here is the next compound: NNCc1ccccc1
false

Same read-out for O=c1c(O)c(-c2ccccc2)oc2ccc3occc3c12 ?
true

Also, COc1cc2c(cc1OC)C(C)NCC2 (centres undefined) please.
false

Same lookup for O=C(/C=C/c1ccccc1)c1ccc(O)cc1O , please.
true

Entry O=c1c(O)c(-c2ccc(O)cc2)oc2ccccc12 please
true

Another compound to look at: O=C(O)[C@H]1/C(=C/CO)O[C@@H]2CC(=O)N21
false

Now give it for NS(=O)(=O)c1cc2c(cc1Cl)NCNS2(=O)=O too.
false

Entry O=C(/C=C/c1ccccc1)c1ccc(O[C@@H]2O[C@H](CO)[C@@H](O)[C@H](O)[C@H]2O)cc1O please
true

And then CC(=O)Oc1c(C)c(C)c2c(c1C)CCC(C)(CCCC(C)CCCC(C)CCCC(C)C)O2 (centres undefined) , what is it?
false

Param item: CC1=C(C(=O)O)N2C(=O)[C@@H](NC(=O)[C@@H](N)c3ccc(O)cc3)[C@H]2SC1
false

// repeat for CC(C)N1C(=O)c2ccccc2NS1(=O)=O and report
false

Values compiled from PubChem BioAssay AID1159580.
